System: NCI-H1944 (Lung Adenocarcinoma);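 also: after 72 h of two-drug dosing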
Assay: Bliss excess, mean over the matrix (fraction); higher = more synergy

>  <COMPOUND>
Cc1c2c(nn1C)CSCc1cc(n(C)n1)CSc1cc(c3ccccc3c1)OCCCc1c(C(=O)O)n(C)c3c-2c(Cl)ccc13 [AZD5991] + C1CN(CCC1(C(=O)N[C@@H](CCO)C2=CC=C(C=C2)Cl)N)C3=NC=NC4=C3C=CN4 [Capivasertib] (first compound max 1 µM, 7x7, partner max 3 µM)

>  <ASSAY_TARGET>
NCI-H1944 (Lung Adenocarcinoma);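 also: after 72 h of two-drug dosing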

>  <Bliss excess>
0.0254

$$$$
>  <COMPOUND>
CC1(C)CCC(CN2CCN(c3ccc(C(=O)NS(=O)(=O)c4ccc(NCC5CCOCC5)c([N+](=O)[O-])c4)c(Oc4cnc5[nH]ccc5c4)c3)CC2)=C(c2ccc(Cl)cc2)C1 [Venetoclax] + C[C@@H](Nc1cc(F)cc(F)c1)c1cc(C(=O)N(C)C)cc2c(=O)cc(N3CCOCC3)oc12 [AZD8186] (first compound max 1 µM, 7x7, partner max 3 µM)

>  <ASSAY_TARGET>
NCI-H1944 (Lung Adenocarcinoma);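 also: after 72 h of two-drug dosing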

>  <Bliss excess>
-0.034

$$$$
>  <COMPOUND>
CC1(C)CCC(CN2CCN(c3ccc(C(=O)NS(=O)(=O)c4ccc(NCC5CCOCC5)c([N+](=O)[O-])c4)c(Oc4cnc5[nH]ccc5c4)c3)CC2)=C(c2ccc(Cl)cc2)C1 [Venetoclax] + Cn1cnc2c(F)c(Nc3ccc(Br)cc3Cl)c(C(=O)NOCCO)cc21 [Selumetinib] (first compound max 1 µM, 7x7, partner max 3 µM)

>  <ASSAY_TARGET>
NCI-H1944 (Lung Adenocarcinoma);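 also: after 72 h of two-drug dosing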

>  <Bliss excess>
-0.0356

$$$$
